A collection of sequences and their measured apparent KD of MS2 coat protein
Tested on: MS2 coat protein
EXPERIMENT_NOTES: apparent KD of MS2 coat protein; designed switch direction (-1 OFF switch, 1 ON switch): 1; higher = weaker reporter binding
CONDITION_PARAMETERS: input ligand: microRNA oligo, concentration not stated

As a guide, the following entries are already answered.
[
  {
    "RESIDUE_STRING": "GUCGGACCGGAAGGAUAUAACGACUGGUGUUUUCACAUGAGGAUCACCCAUGUAUCUCUACCGUGUUAGAAGGUUCGGAGGAAU [Eternabot solution 49] (Eterna round: R96, puzzle: Same State NG 2)",
    "apparent KD of MS2 coat protein": "15.2 nM"
  },
  {
    "RESIDUE_STRING": "CUUUUUCACUAUACAUGAGGAUCACCCAUGUUAUCAUCAUGAGAGGAUAUCGUAAUAGGAUUUUUCGAGAAGGCUCUAAAGUAU [JR_SSNG3_Sub079] (Eterna round: R96, puzzle: Same State NG 3)",
    "apparent KD of MS2 coat protein": "43 nM"
  },
  {
    "RESIDUE_STRING": "GAGAGAGGGUGAGGAUAUUCAGUAAUAAUGAUAGAAGAAGGCACAGACAUGAGGAUCACCCAUGUGGGAAUAAUCCAGAGAGAG [Parity 3 - Jieux - Same State NG 1] (Eterna round: R96, puzzle: Same State NG 1)",
    "apparent KD of MS2 coat protein": "158 nM"
  }
]

Next, consider the following sequence.
Req: What does the record list as apparent KD of MS2 coat protein for UUGAAGAAUUAAGGAUAUCGAGUCGUCAAAUUAAACAUGAGGAUCACCCAUGUGGGUUGCGGUAUCGAGAAGGUAAAUUACUAG [JL JR Sub099 mod 4] (Eterna round: R96, puzzle: Same State NG 2) ?
Resp: 15.2 nM
